Just for reference, paper PMC4738305 is where these values come from.

assay: Metabolite profiling of ADP in excreta, plasma and bile (LC-v.ARC/MS-IT-TOF); type: in vivo, broilers; conditions: Broilers, Excreta, single oral 5 mg/kg b.w. ^3H-ADP
The entries below come with measured Average percentage of ADP and its metabolites in total dose values attached.
ASSAY ENDPOINT: Average percentage of ADP and its metabolites in total dose

- STRUCTURE: "COc1cc(Cc2cnc(N)nc2N)cc(OC)c1N"
  MEASURED VALUE: "4.8%"
- STRUCTURE: "CNc1c(OC)cc(Cc2cnc(N)nc2N)cc1OC"
  MEASURED VALUE: "13.7%"
- STRUCTURE: "COc1cc(Cc2cnc(N)nc2N)cc(OC)c1N(C)C"
  MEASURED VALUE: "64.3%"
- STRUCTURE: "COc1cc(Cc2cnc(N)nc2N)cc(O)c1N(C)C"
  MEASURED VALUE: "6.4%"
